Entry source: patent US12655101B2

- Tested on: A. baumannii ATCC BAA-1797
- test.protocol: MIC on A. baumannii ATCC BAA-1797
- Format: cell-based
- condition.notes: Acinetobacter baumannii, ATCC 1797 / ATCC BAA-1797, read-out: MIC (μM) in MDR A. baumannii ATCC 1797 40% FBS, 40% FBS
In this section, each of the compounds is paired with its reported MIC.

{"columns": ["compound", "system.tested", "MIC"],
 "data": [
  ["Cl.Fc1ccc(N/N=C/c2c[nH]c3cccc(OCc4ccccc4)c23)cc1 [Compound 27]", "A. baumannii ATCC BAA-1797", "50 µM"]
]}

Give the reported MIC for this compound. Oc1cccc2[nH]cc(/C=N/Nc3ccc(Br)cc3)c12 [Compound 20]
> 100 µM

Give the reported MIC for this compound. Oc1cccc2[nH]cc(/C=N/Nc3ccccc3)c12 [Compound 13]
> 100 µM

Give the reported MIC for this compound. Nc1ccc(N/N=C/c2c[nH]c3cccc(OCc4ccccc4)c23)cc1 [Compound 38]
> 100 µM

Give the reported MIC for this compound. N#CCC(=O)N/N=C/c1c[nH]c2ccccc12 [Compound 11]
> 100 µM

====

- Test system: MRSA ATCC BAA-44
- test.protocol: MIC on MRSA ATCC BAA-44
- Assay type: cell-based, S. aureus
- condition.notes: Staphylococcus aureus, no serum (note in the cell); read-out: MIC (μM) in MRSA BAA-44
readout.type: MIC

Example entries begin here.
{"columns": ["molecule", "recorded.result"],
 "data": [
  ["Nc1cccc2c(S(=O)(=O)N/N=C/c3c[nH]c4cccc(OCc5ccccc5)c34)cccc12 [Compound 33]", "> 100 µM"],
  ["Oc1cccc2[nH]cc(/C=N/Nc3ccc(Br)cc3)c12 [Compound 20]", "25 µM"],
  ["C(=N\\Nc1ncccn1)/c1c[nH]c2cccc(OCc3ccccc3)c12 [Compound 36]", "> 100 µM"],
  ["C(=N\\NC1=NCCCN1)/c1c[nH]c2cccc(OCc3ccccc3)c12 [Compound 35, 2,2,2-trifluoroacetate]", "50 µM"]
]}

Give the reported MIC for this molecule. Brc1ccc2c(N/N=C/c3c[nH]c4cccc(OCc5ccccc5)c34)ccnc2c1 [Compound 43]
6 µM

Give the reported MIC for this molecule. Cl.Clc1ccc(N/N=C/c2c[nH]c3cccc(OCc4ccccc4)c23)cc1 [Compound 26]
50 µM

Give the reported MIC for this molecule. Brc1ccc(N/N=C/c2c[nH]c3cccc(OCc4ccccc4)c23)cc1.Cl [Compound 25]
50 µM

====

- Tested on: A. baumannii ATCC BAA-1797
- test.protocol: MIC on A. baumannii ATCC BAA-1797
- Format: cell-based
- condition.notes: Acinetobacter baumannii, ATCC 1797 / ATCC BAA-1797, read-out: MIC (μM) in MDR A. baumannii ATCC 1797 40% FBS, 40% FBS
readout.type: MIC (µM)
The response must be a number in µM with no trailing unit.

Example entries begin here.
{"columns": ["molecule", "MIC, µM"],
 "data": [
  ["N=C(N)NCCC(N)C(=O)Nc1cccc2[nH]cc(/N=N/c3ccc(Br)cc3)c12 (stereo not drawn) [Compound 6]", 100],
  ["Brc1ccc(N/N=C/c2c[nH]c3cccc(OCc4ccccc4)c23)cc1.Cl [Compound 25]", 50],
  ["Cl.Clc1ccc(N/N=C/c2c[nH]c3cccc(OCc4ccccc4)c23)cc1 [Compound 26]", 100]
]}

Please find the next molecule below.
Give the reported MIC for this molecule. C(=N\Nc1ccccc1)/c1c[nH]c2ccccc12 [Compound 8]
50

====

- System: A. baumannii ATCC BAA-1797
- test.protocol: Colony counts of A. baumannii ATCC BAA-1797 treated with 4xMIC for 16 hours
- Type: cell-based
- condition.notes: 4X MIC
In this section, each of the compounds is paired with its reported Kill at 4X MIC at 16 hours.

Example entries begin here.
{"columns": ["substance.smiles", "system.tested", "Kill at 4X MIC at 16 hours"],
 "data": [
  ["Brc1ccc(N/N=C/c2c[nH]c3cccc(OCc4ccccc4)c23)cc1.Cl", "A. baumannii ATCC BAA-1797", "5-logs"],
  ["Nc1cccc2[nH]cc(/C=N/Nc3ccc(Cl)cc3)c12", "A. baumannii ATCC BAA-1797", "5-logs"],
  ["Cl.Clc1ccc(N/N=C/c2c[nH]c3cccc(OCc4ccccc4)c23)cc1", "A. baumannii ATCC BAA-1797", "5-logs"]
]}

# return Kill at 4X MIC at 16 hours for Cl.Fc1ccc(N/N=C/c2c[nH]c3cccc(OCc4ccccc4)c23)cc1 , test system: A. baumannii ATCC BAA-1797
5-logs

# return Kill at 4X MIC at 16 hours for Clc1ccc(N/N=C/c2c[nH]c3ccc(Br)cc23)cc1 , test system: A. baumannii ATCC BAA-1797
6-logs

====

- System: MRSA ATCC BAA-44
- test.protocol: MIC on MRSA ATCC BAA-44
- Assay type: cell-based, S. aureus
- condition.notes: Staphylococcus aureus, no serum (note in the cell); read-out: MIC (μM) in MRSA BAA-44
- Experimental: MRSA BAA-44: MRSA ATCC BAA-44 was grown from a glycerol stock by placing a small volume of cells onto a Mueller-Hinton agar plate (MHA). The MHA plate was incubated overnight at 37° C. […] Efficacy was either assessed visually or by adding 10% v/v MTT (5 mg/mL stock) after the 18 hour incubation period, where the cell suspensions were subsequently incubated for 10 minutes to allow the MTT reagent to carry out the colorimetric reaction.
readout.type: MIC (µM)
The response must be a number in µM with no trailing unit.

{"columns": ["substance.smiles", "recorded.result"],
 "data": [
  ["Cl.Fc1ccc(N/N=C/c2c[nH]c3cccc(OCc4ccccc4)c23)cc1", 100],
  ["O=C(O)c1ccc(N/N=C/c2c[nH]c3ccccc23)cc1", 100],
  ["Clc1ccccc1N/N=C/c1c[nH]c2ccccc12", 25],
  ["Oc1cccc2[nH]cc(/C=N/Nc3ccc(F)cc3)c12", 25],
  ["CCCCCC(=O)Oc1cccc2[nH]cc(/C=N/Nc3ccc(Br)cc3)c12", 25],
  ["FC(F)(F)c1ccc(N/N=C/c2c[nH]c3cccc(OCc4ccccc4)c23)cc1", 12.5],
  ["CC(C)(C)OC(=O)Nc1cccc2[nH]cc(/C=N/Nc3ccc(Cl)cc3)c12", 12.5]
]}

Give the reported MIC for this compound. Cn1cc(/C=N/Nc2ccc(Br)cc2)c2c(OCc3ccccc3)cccc21
25

====

- Test system: A. baumannii ATCC BAA-1797
- test.protocol: MIC on A. baumannii ATCC BAA-1797
- Assay type: cell-based
- condition.notes: Acinetobacter baumannii, ATCCBAA1797, read-out: MIC in 40% FBS (μM), Table 7; 40% FBS
readout.type: MIC (µM)
The response must be a number in µM with no trailing unit.

Example entries begin here.
{"columns": ["substance.smiles", "system.tested", "recorded.result"],
 "data": [
  ["Nc1cccc2[nH]cc(/C=N/Nc3ccc(Cl)cc3)c12", "A. baumannii ATCC BAA-1797", 50],
  ["Cl.Fc1ccc(N/N=C/c2c[nH]c3cccc(OCc4ccccc4)c23)cc1", "A. baumannii ATCC BAA-1797", 50],
  ["Cl.Clc1ccc(N/N=C/c2c[nH]c3cccc(OCc4ccccc4)c23)cc1", "A. baumannii ATCC BAA-1797", 100]
]}

Please find the next compound below.
Give the reported MIC for this compound. Brc1ccc(N/N=C/c2c[nH]c3cccc(OCc4ccccc4)c23)cc1.Cl
50

====

- Tested on: MRSA ATCC BAA-44
- test.protocol: MIC on MRSA ATCC BAA-44
- Format: cell-based, S. aureus
- condition.notes: Staphylococcus aureus, MRSA ATCC BAA-44; serum not stated; read-out: MIC
readout.type: MIC

Example entries begin here.
{"columns": ["substance.smiles", "recorded.result"],
 "data": [
  ["Brc1ccc(N/N=C/c2c[nH]c3cccc(OCc4ccccc4)c23)cc1.Cl", "25 µM"],
  ["CC(C)(C)OC(=O)Nc1cccc2[nH]cc(/C=N/Nc3ccc(Cl)cc3)c12", "12.5 µM"],
  ["Cl.Fc1ccc(N/N=C/c2c[nH]c3cccc(OCc4ccccc4)c23)cc1", "100 µM"],
  ["Cl.Clc1ccc(N/N=C/c2c[nH]c3cccc(OCc4ccccc4)c23)cc1", "25 µM"]
]}

Please find the next molecule below.
Give the reported MIC for this molecule. Nc1cccc2[nH]cc(/C=N/Nc3ccc(Cl)cc3)c12
50 to 100 µM

====

In this section, each of the compounds is paired with its reported MIC.
- Test system: A. baumannii ATCC BAA-1797
- test.protocol: MIC on A. baumannii ATCC BAA-1797
- Type: cell-based
- condition.notes: Acinetobacter baumannii, ATCCBAA1797, 18 h, read-out: MIC in the presence of 40% FBS, A. baumannii ATCC BAA-1797; 40% FBS
- Description: A. baumannii: A. baumannii ATCC BAA-1797 was grown from a glycerol stock by placing a small volume of cells onto a MHA plate. The MHA plate was incubated overnight at 37° C. A single colony was used to inoculate MHB to obtain a bacterial broth suspension. The MHB broth suspension was grown at 37° C. on a rotary shaking incubator (100 rpm) for 12 hours. […] Efficacy was either assessed visually or by adding 10% v/v MTT (5 mg/mL stock) after the 18 hour incubation period. […] The OD was read at 595 nm.
The response must be a number in µM with no trailing unit.

{"columns": ["substance.smiles", "unit.annotation", "MIC"],
 "data": [
  ["Cl.Clc1ccc(N/N=C/c2c[nH]c3cccc(OCc4ccccc4)c23)cc1", "µM", 50]
]}

Give the reported MIC for this compound. Nc1cccc2[nH]cc(/C=N/Nc3ccc(Cl)cc3)c12
50

Give the reported MIC for this compound. COc1ccc(N/N=C/c2c[nH]c3cccc(OCc4ccccc4)c23)cc1
100

Give the reported MIC for this compound. Clc1ccc(N/N=C/c2c[nH]c3ccc(Br)cc23)cc1
100
